Molecular target: T1, human TL1A extracellular domain with N-terminal HIS and FLAG tag (human, UniProt O95150 72-251)
T1 construct: whole entry named. ~70 kDa fraction purified by gel filtration
T1 sequence: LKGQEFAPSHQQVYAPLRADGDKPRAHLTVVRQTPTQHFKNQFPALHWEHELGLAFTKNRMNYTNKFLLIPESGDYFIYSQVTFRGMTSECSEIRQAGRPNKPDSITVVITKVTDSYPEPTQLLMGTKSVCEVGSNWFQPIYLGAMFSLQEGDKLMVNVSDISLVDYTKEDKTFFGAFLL
Assay: SPR run 2; supernatant on Protein A; TL1A 10 ug/mL; timepoint 220
VALUE_TYPE: TL1A Binding Level (Late) (RU)
# unit: RU | format: bare number

Report TL1A Binding Level (Late), nothing else, for this binder: 320-220 (antibody, human IgG1, name in Kabat numbering, V domains shown, human IgG1, lambda) VH: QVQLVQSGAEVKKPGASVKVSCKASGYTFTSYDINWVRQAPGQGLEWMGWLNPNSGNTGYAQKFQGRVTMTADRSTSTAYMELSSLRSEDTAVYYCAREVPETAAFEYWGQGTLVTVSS VL: QSVLTQPPSVSGAPGQRVTISCTSSHSDIGAGLGVHWYQQLPGTAPKLLIEGYYNRPSGVPDRFSGSKSGTSASLTITGLLPEDEGDYYCQSYDGTLSALFGGGTKLTVLG 230

Provide measured TL1A Binding Level (Late) value, entry: 320-251 (antibody, human IgG1, name in Kabat numbering, V domains shown, human IgG1, lambda) VH: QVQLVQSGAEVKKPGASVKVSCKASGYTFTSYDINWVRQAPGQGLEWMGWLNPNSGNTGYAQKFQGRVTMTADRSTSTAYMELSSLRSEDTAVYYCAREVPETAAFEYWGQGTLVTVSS VL: QSVLTQPPSVSGAPGQRVTISCTSSSSDISAGLGVHWYQQLPGTAPKLLIEGYYNRPSGVPDRFSGSKSGTSASLTITGLLPEDEGDYYCQSYDGTLSALFGGGTKLTVLG 50
